Entries and their inhibition values follow.
method.description: human hepatoma cell viability loss – ATP luminescence, cytotoxicity control for P. falciparum antimalarial project, primary screen (AID 2303);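 note: 0% = DMSO wells and 100% = digitonin-killed cells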
run.conditions: HepG2 viability, 24-48 h, at 10 µM, active compounds read high
A number alone suffices; assume %.

Look over these answered cases.
1. CCCCCC1c2[nH]c3ccccc3c2CCN1C(=O)OCc1ccccc1 (stereo not given); 3
2. CCCCOc1ccc(-n2c(Nc3ccccc3)nc3cc(S(N)(=O)=O)ccc32)cc1; 0
3. COc1ccc(N2CCN(C(CNC(=O)C3CCCCC3)c3ccc4c(c3)OCO4)CC2)cc1 (stereo not given); 1

**Query** Answer with the recorded inhibition for the molecule listed here: NC1CCN(Cc2ccc(-c3ccc(-c4nc5ccccc5[nH]4)s3)cc2)C1 (stereo not given)
**Result** 32

**Query** Answer with the recorded inhibition for the molecule listed here: C=C(NC(=O)C1CCCCC1)C(=O)OC
**Result** 15

**Query** Answer with the recorded inhibition for the molecule listed here: CC(C)C[C@H](NC(=O)c1ccc(OCCN2CCOCC2)cc1)C(=O)N[C@H](/C=N/N1CCNC1=O)CCc1ccccc1
**Result** 1

**Query** Answer with the recorded inhibition for the molecule listed here: Cc1cccc2[nH]c(-c3ccc(-c4ccc(NC(=O)C(C)CN(C)C)cc4)s3)nc12 (stereo not given)
**Result** 23

**Query** Answer with the recorded inhibition for the molecule listed here: O=c1sn(-c2csc3ccccc23)c2ccccc12
**Result** 14

**Query** Answer with the recorded inhibition for the molecule listed here: C=CCn1c(Sc2ccc(C#N)c([N+](=O)[O-])c2)nnc1-c1cc(OC)cc(OC)c1
**Result** 12

**Query** Answer with the recorded inhibition for the molecule listed here: Cc1ccc(-c2nc(N3CCN(C(=O)c4ccco4)CC3)c3ccc(Cl)cc3n2)cc1
**Result** 17

###

Entries and their growth inhibition values follow.
method.description: inhibition of 3D7 malaria parasite growth – strain 3D7 (AID 2306);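 note: 0% = DMSO wells and 100% = chloroquine plus artemisinin control wells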
run.conditions: P. falciparum 3D7 erythrocytic growth, LDH absorbance, 72 h; at 2 µM; active compounds read high
A number alone suffices; assume %.

**Query** Answer with the recorded growth inhibition for the compound listed here: O=C(Nc1ccc(C(=O)Oc2cccc3ccccc23)cc1)N[C@@H](Cc1ccc(O)cc1)C(=O)NC1CCN(Cc2ccc(O)cc2)C1 (stereo partly drawn)
**Result** 87

**Query** Answer with the recorded growth inhibition for the compound listed here: N#Cc1ccc(N(CCOc2ccc(Cl)c(F)c2)Cc2ccccc2C(F)(F)F)cc1C(F)(F)F
**Result** 101

**Query** Answer with the recorded growth inhibition for the compound listed here: O=C(CN1CCC(NCc2cnc(-c3ccc(Cl)cc3)[nH]2)CC1)N1CCc2ccccc21
**Result** 100

**Query** Answer with the recorded growth inhibition for the compound listed here: CCc1cn(C)c2c(N3CCCC3=O)cc(C(=O)N[C@@H](Cc3ccccc3)[C@H](O)CNC(C)(C)c3cccc(C(F)(F)F)c3)cc12
**Result** 97

**Query** Answer with the recorded growth inhibition for the compound listed here: Cc1ccc2ncc(Cl)c(CCN3CCC(NCc4ccc5c(n4)NC(=O)CS5)CC3)c2n1
**Result** 90

###

method.description: antimalarial activity against Dd2 strain (AID 2302);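 note: 0% = DMSO untreated growth and 100% = chloroquine plus artemisinin killed control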
run.conditions: P. falciparum Dd2 in RBCs, LDH growth readout, 72 h; at 2 µM
Calls of active or inactive are those of the source.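 Rule for the calls: active = growth inhibition above 50% at the single 2 µM test dose, taken to imply half-maximal potency below 2 µM; inactive = the rest.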
Respond only with the outcome that fits, drawn from active, inactive

1. O=C(NC1CCN(c2ccnc3ccccc23)C1)c1cccc(C(F)(F)F)c1 (stereo not given); active
2. Cc1ccc(NC(=O)c2cccc(N3CCN(c4ccncc4)CC3)c2)cc1F; active
3. CCc1ccc(-n2c(NC(=O)c3ccccc3)nc3ccc(S(=O)(=O)NC(C)C(C)C)cc32)cc1 (stereo not given); inactive
4. CC(=O)Nc1ccc(C(=O)N2CCN(c3ccnc4cc(Cl)ccc34)CC2)cc1; inactive
5. c1ccc2[nH]c(-c3ccc(-c4ccc(CNC5CC5)cc4)s3)nc2c1; inactive

**Query** For this molecule, state the assay outcome: CC(C)CCN1CCCN(Cc2cccc(NC(=O)c3cc4ccccc4s3)c2)CC1
**Result** inactive

**Query** For this molecule, state the assay outcome: Cc1cccc2c(C(=O)NC3CCN(Cc4ccccc4)CC3)cc(-c3cccnc3)nc12
**Result** inactive

**Query** For this molecule, state the assay outcome: COc1cc2ncnc(Nc3ccc4nc(-c5ccccc5)[nH]c4c3)c2cc1OC
**Result** inactive

**Query** For this molecule, state the assay outcome: O=C(Nc1cccc(CN2CCCN(Cc3ccc(O)cc3)CC2)c1)c1cccc(C(F)(F)F)c1
**Result** active

**Query** For this molecule, state the assay outcome: NC(=O)c1cccc(-n2ccc3cc(CNC4Cc5ccccc5C4)ccc32)c1
**Result** inactive

###

Entries and their growth inhibition values follow.
method.description: inhibition of 3D7 malaria parasite growth – strain 3D7 (AID 2306);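 note: 0% = DMSO wells and 100% = chloroquine plus artemisinin control wells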
run.conditions: P. falciparum 3D7 erythrocytic growth, LDH absorbance, 72 h; at 2 µM; active compounds read high
A number alone suffices; assume %.

1) CN(C)Cc1ccc2cc(NC(=O)c3ccc(-c4ccc(Cl)cc4)cc3)ccc2c1; 92
2) O=C(Nc1cccc(-c2cccc(-c3nc4ccc(C(F)(F)F)cc4[nH]3)c2)c1)c1ccc(=O)[nH]n1; 103
3) Cc1cccc2[nH]c(-c3cccc(-c4ccc(NC(=O)COc5ccccc5C(N)=O)cc4)c3)nc12; 101
4) C=CCC1OC(=O)c2cc(OC)cc(OC)c21 (centres undefined); 95
5) CC(C)CC(NC(=O)c1ccc(F)cc1)C(=O)N[C@H](/C=N/N1CCNC1=O)CC(C)C (some centres undefined); 89

**Query** Answer with the recorded growth inhibition for the molecule listed here: COc1ccc(NC(=O)[C@H](Cc2ccccc2)Nc2cc(C)nc(NCC3CCCCC3)n2)cc1
**Result** 100

**Query** Answer with the recorded growth inhibition for the molecule listed here: COc1ccc(CCC(C)N2C[C@@H](N)[C@H](c3cn(C)c4cnccc34)C2)cc1 (some centres undefined)
**Result** 98

**Query** Answer with the recorded growth inhibition for the molecule listed here: N#Cc1ccc(-n2cc(C(=O)Nc3ccc4c(c3)CCN(C3CCC3)CC4)c(C(F)(F)F)n2)cc1
**Result** 102

**Query** Answer with the recorded growth inhibition for the molecule listed here: COc1ccc(-c2cnc3ccc(NCc4ccc(S(N)(=O)=O)cc4)nn23)cc1
**Result** 96

###

method.description: antimalarial activity against Dd2 strain (AID 2302);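 note: 0% = DMSO untreated growth and 100% = chloroquine plus artemisinin killed control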
run.conditions: P. falciparum Dd2 in RBCs, LDH growth readout, 72 h; at 2 µM; active compounds read high
recorded.endpoint: growth inhibition (%)
A number alone suffices; assume %.

**Query** Answer with the recorded growth inhibition for the molecule listed here: Cc1nc2ccc3ccc(CNc4ccc(C(=O)CC(CCC(=O)O)C(=O)O)cc4)cc3c2c(=O)[nH]1 (stereo not given)
**Result** 96

###

method.description: antimalarial activity against Dd2 strain (AID 2302);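 note: 0% = DMSO untreated growth and 100% = chloroquine plus artemisinin killed control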
run.conditions: P. falciparum Dd2 in RBCs, LDH growth readout, 72 h; at 2 µM; active compounds read high
Labels assigned by growth inhibition range: Low = under 40%, Mid = from 40% up to 90%, High = 90% and over

These solved cases illustrate the format of a correct answer.
1. COc1cccc2cc(C(=O)N[C@@H](CC(C)C)C(=O)N[C@H](/C=N/NC(=O)OC(C)(C)C)CC(=O)OC(C)(C)C)oc12; Mid
2. Clc1ccc(OCc2ccccc2)c(Cc2ccc(-c3nc4ccncc4[nH]3)o2)c1; Low
3. COc1ccc2nccc(N3CCC(CCNCc4cc5c(cn4)OCCO5)CC3)c2n1; High
4. COc1ccc(C#Cc2ccc(-c3c(C)[nH]c(C)c(Cl)c3=O)cc2)cc1; High
5. O=C(COc1ccc(Cl)c(Cl)c1)NCCCCCN1CCCN(C(=O)Nc2cc(Cl)cc(Cl)c2)CC1; Low

**Query** Each compound maps to one class by growth inhibition. Which class for COc1ccccc1C(C)NCC(=O)Nc1cc(C(F)(F)F)ccc1Cl (centres undefined) ?
**Result** Mid

**Query** Each compound maps to one class by growth inhibition. Which class for NC(N)=Nc1nccc(NCc2ccccc2)n1 ?
**Result** Mid

###

tgt: Plasmodium falciparum protein kinase 6 (PK6, PF3D7_1337100)
method.description: PfPK6 kinase inhibitors, biochemical, TCAMS library (AID 1159586)
run.conditions: recombinant PfPK6, Kinase-Glo ATP depletion luminescence
Entries with a potency or affinity are not part of this list. Active and inactive are the calls of the source. The rule behind the calls is not given here.
recorded.endpoint: outcome

Look over these answered cases.
1. C=CCn1cc(C2CCN(CCCCNC(=O)c3sc(-c4ccc(C(F)(F)F)cc4)nc3CO)CC2)c2cc(OC)ccc21; inactive
2. C1=CN(Cc2ccccc2)C=CC1=C1C=Nc2ccccc21; inactive
3. CCNC[C@H]1CCCN1CCOc1ccc(-n2cnc3cc(-c4ccc(Cl)cc4)sc3c2=O)cc1OC; inactive
4. CC(C)(C)c1ccc2oc(=O)n(C3CCN(C(=O)c4ccc([N+](=O)[O-])o4)CC3)c2c1; inactive
5. CN(C)c1ccc(C=C2SC(=N)N(c3nccs3)C2=O)cc1; inactive
6. COc1ccc(NC(=O)/C=C/c2ccccc2Cl)cc1OCCN1CCC(N(C)C)CC1; inactive
7. Cc1cc2ncn(-c3ccnc(N4CCN(CCCN5CCCC5)CC4)n3)c2cc1C; inactive
8. CCOC(=O)c1ccc(NC(=O)Nc2ccc(-c3ccc(-c4nc5ccc(C(F)(F)F)cc5[nH]4)cc3)cc2)cc1; inactive

Attention now shifts to the item below.
**Query** Answer with the recorded outcome for the compound listed here: COc1ccc2nccc(NCC3(O)CCN(CCc4ccc5c(c4)OCCO5)CC3)c2n1
**Result** inactive
